assay.protocol: Toxicity against Artemia salina after 24 hrs
Assay type: organism-based
test.conditions: in vivo
LC50 at 24 h: recorded values
Please answer using the number first and the unit second.

Solved cases below.
{"structure.notation": "CC(C)C/C=C/[C@@H](C)[C@H]1CC[C@H]2[C@@H]3[C@@H](O)C=C4C[C@@H](O)CC[C@]4(CO)[C@H]3CC[C@]12C", "observation.type": "LC50 at 24 h", "reported": "30.7 µg/mL"}
{"structure.notation": "CC(C)CCC[C@@H](C)[C@H]1CC[C@H]2[C@@H]3[C@@H](O)C=C4C[C@@H](O)CC[C@]4(CO)[C@H]3CC[C@]12C", "observation.type": "LC50 at 24 h", "reported": "55.6 µg/mL"}
{"structure.notation": "CC(C)CCC[C@@H](C)[C@H]1CC[C@H]2[C@@H]3[C@@H](O)C=C4C[C@@H](O)CC[C@]4(CO)[C@@]3(O)CC[C@]12C", "observation.type": "LC50 at 24 h", "reported": "7.2 µg/mL"}

Pending compound:
Ask | Item CC(C)CCC[C@](C)(O)[C@H]1C(=O)C[C@H]2[C@@H]3CCC4=CC(=O)C=C[C@]4(C)[C@H]3CC[C@@]21CO has what recorded LC50 at 24 h?
Reply | 139 µg/mL
